- testedTarget: BRM (Homo sapiens)
- Construct: In-Cell Western Screen of BRM Degradation in SW1573 Cells; endogenous in cells; host or cells: SW1573 cells
- experimentSummary: Western blot / In-Cell Western screen of BRM degradation in SW1573 cells
- Type: cell-based
- conditionParameters: overnight (18-20 hours) treatment
Where a name gives a salt, the structure may show the parent alone.
Item-by-item account of DC50

[[record]]
compound = "Cc1ncsc1-c1ccc([C@H](C)NC(=O)[C@@H]2C[C@@H](O)CN2C(=O)[C@@H](c2cc(N3CCC(CN4CCC(OCCn5cnc(-c6cn7cc(-c8ccccc8O)nc7nc6N)c5)CC4)CC3)no2)C(C)C)cc1 [Compound 38]"
testedtarget = "BRM (Homo sapiens)"
property = "DC50"
result = "2.5 to 10 nM"

[[record]]
compound = "CC(C)[C@@H](C(=O)N1C[C@H](O)C[C@H]1C(=O)N[C@@H](C)c1ccc(-c2ccnn2C)cc1)c1cc(N2CCC(CN3CCC(O[C@H]4C[C@H](Cn5cc(-c6cn7cc(-c8ccccc8O)nc7nc6N)cn5)C4)CC3)CC2)no1 [Compound 42]"
testedtarget = "BRM (Homo sapiens)"
property = "DC50"
result = "< 2.5 nM"

[[record]]
compound = "Cc1nccn1-c1ccc([C@H](C)NC(=O)[C@@H]2C[C@@H](O)CN2C(=O)[C@@H](c2cc(OCCN3CCN(CCOc4cc(N5CCN(c6cc(-c7ccccc7O)nnc6N)CC56COC6)ccn4)CC3)no2)C(C)C)cc1 [Compound 20]"
testedtarget = "BRM (Homo sapiens)"
property = "DC50"
result = "2.5 to 10 nM"

[[record]]
compound = "Cc1ncsc1-c1ccc([C@H](C)NC(=O)[C@@H]2C[C@@H](O)CN2C(=O)[C@@H](c2cc(N3CCC(CN4CCC(O[C@H]5C[C@H](Oc6cc(CC(F)c7cc(-c8ccccc8O)nnc7N)ccn6)C5)CC4)CC3)no2)C(C)C)cc1 (stereo partly shown) [Compound 2]"
testedtarget = "BRM (Homo sapiens)"
property = "DC50"
result = "2.5 to 10 nM"

[[record]]
compound = "Cc1ncsc1-c1ccc([C@H](C)NC(=O)[C@@H]2C[C@@H](O)CN2C(=O)[C@@H](c2cc(N3CCC(CN4CCC(O[C@H]5C[C@H](n6ccc(CN7C8CCC7CN(c7cc(-c9ccccc9O)nnc7N)C8)n6)C5)CC4)CC3)no2)C(C)C)cc1 [Compound 14]"
testedtarget = "BRM (Homo sapiens)"
property = "DC50"
result = "≥ 30 nM"


Consider the compound Cc1nccn1-c1ccc([C@H](C)NC(=O)[C@@H]2C[C@@H](O)CN2C(=O)[C@H](c2cc(OCCN3CCN(CCOc4cc(N5CCN(c6cc(-c7ccccc7O)nnc6N)CC56COC6)ccn4)CC3)no2)C(C)C)cc1 [Compound 21] and give its measured DC50.
≥ 30 nM

Consider the compound Cc1ncsc1-c1ccc([C@H](C)NC(=O)[C@@H]2C[C@@H](O)CN2C(=O)[C@@H](c2cc(OCCN3CCN(CCOc4cc(N5CCN(c6cc(-c7ccccc7O)nnc6N)CC56COC6)ccn4)CC3)no2)C(C)C)cc1 [Compound 15] and give its measured DC50.
< 2.5 nM

Consider the compound Cc1ncsc1-c1ccc([C@H](C)NC(=O)[C@@H]2C[C@@H](O)CN2C(=O)[C@H](c2cc(OCCCC#Cc3cn4cc(-c5ccccc5O)nc4nc3N)no2)C(C)C)cc1 [Compound 30] and give its measured DC50.
≥ 30 nM

Consider the compound Cc1ncsc1-c1ccc([C@H](C)NC(=O)[C@@H]2C[C@@H](O)CN2C(=O)[C@@H](c2cc(N3CCC(O[C@H]4C[C@H](OCC#Cc5cn6cc(-c7ccccc7O)nc6nc5N)C4)CC3)no2)C(C)C)cc1 [Compound 35, formate] and give its measured DC50.
2.5 to 10 nM

Consider the compound Cc1ncsc1-c1ccc([C@H](C)NC(=O)[C@@H]2C[C@@H](O)CN2C(=O)[C@@H](c2cc(N3CCC(CN4CCC(O[C@H]5C[C@H](Oc6cc(N7CCN(c8cc(-c9ccccc9O)nnc8N)CC78CC8)ccn6)C5)CC4)CC3)no2)C(C)C)cc1 [Compound 6] and give its measured DC50.
< 2.5 nM

Consider the compound Cc1ncsc1-c1ccc([C@H](C)NC(=O)[C@@H]2C[C@@H](O)CN2C(=O)[C@@H](c2cc(N3CCC(CN4CCC5(CC4)CC(N4CCO[C@@H](CN6CCOC7(CCCN(c8cc(-c9ccccc9O)nnc8N)C7)C6)C4)C5)CC3)no2)C(C)C)cc1 (stereo partly shown) [Compound 22] and give its measured DC50.
< 2.5 nM

###

- testedTarget: BRM (Homo sapiens)
- Construct: In-Cell Western Screen of BRM Degradation in SW1573 Cells; endogenous in cells; host or cells: SW1573 cells
- experimentSummary: Western blot / In-Cell Western screen of BRM degradation in SW1573 cells
- Type: cell-based
- conditionParameters: overnight (18-20 hours) treatment
Item-by-item account of DC50

For orientation, consider the following solved cases.
[[record]]
smilesinput = "CC(C)[C@@H](C(=O)N1C[C@H](O)C[C@H]1C(=O)N[C@@H](C)c1ccc(-c2ccnn2C)cc1)c1cc(OCCN2CCN(Cc3ccc(C/C=C/c4cn5cc(-c6ccccc6O)nc5nc4N)cc3)CC2)no1"
result = "2.5 to 10 nM"

[[record]]
smilesinput = "Cc1ncsc1-c1ccc([C@H](C)NC(=O)[C@@H]2C[C@@H](O)CN2C(=O)[C@@H](c2cc(N3CCC(CN4CCC(O[C@H]5C[C@H](N6CCC(O[C@H]7C[C@H](C#Cc8cc(-c9ccccc9O)nnc8N)C7)CC6)C5)CC4)CC3)no2)C(C)C)cc1"
result = "< 2.5 nM"

[[record]]
smilesinput = "CC(C)[C@@H](C(=O)N1C[C@H](O)C[C@H]1C(=O)N[C@@H](C)c1ccc(-c2ccnn2C)cc1)c1cc(N2CCC(CN3CCC(O[C@H]4C[C@H](n5cc(-c6cn7cc(-c8ccccc8O)nc7nc6N)cn5)C4)CC3)CC2)no1"
result = "< 2.5 nM"


Kindly review the next molecule as well.
Consider the molecule `Cc1ncsc1-c1ccc([C@H](C)NC(=O)[C@@H]2C[C@@H](O)CN2C(=O)[C@@H](c2cc(OCCCC#Cc3cn4cc(-c5ccccc5O)nc4nc3N)no2)C(C)C)cc1` and give its measured DC50.
≥ 30 nM

###

Item-by-item account of Dmax
- testedTarget: BRM (Homo sapiens, UniProt P51531)
- Construct: In-Cell Western Screen of BRM Degradation in SW1573 Cells; endogenous in cells; host or cells: SW1573 cells
- experimentSummary: Western blot / In-Cell Western screen of BRM degradation in SW1573 cells
- Type: cell-based
- conditionParameters: overnight (18-20 hours) treatment, read-out: Dmax (%) (% degraded)

Consider the molecule `Cc1ncsc1-c1ccc([C@H](C)NC(=O)[C@@H]2C[C@@H](O)CN2C(=O)[C@@H](c2cc(N3CCC(CN4CCC(O[C@H]5C[C@H](Oc6cc(N7CCN(c8cc(-c9ccccc9O)nnc8N)CC78CC8)ccn6)C5)CC4)CC3)no2)C(C)C)cc1` and give its measured Dmax.
> 75%

Consider the molecule `Cc1ncsc1-c1ccc([C@H](C)NC(=O)[C@@H]2C[C@@H](O)CN2C(=O)[C@@H](c2cc(N3CCC(CN4CCC(O[C@H]5C[C@H](n6cc(CN7C8CCC7CN(c7cc(-c9ccccc9O)nnc7N)C8)cn6)C5)CC4)CC3)no2)C(C)C)cc1` and give its measured Dmax.
> 75%

###

Item-by-item account of Kd
- testedTarget: recombinant human 6×His-tagged-BRM (bromodomain-only; aa. 1377-1486) (Homo sapiens)
- Construct: (bromodomain-only; aa; 1377-1486; NP_620614)
- experimentSummary: AlphaLISA competitive BRM binding assay
- conditionParameters: 7 nM 6×His-BRM, 20 nM biotinylated probe
Counter-ions that a name gives are not always drawn.

For orientation, consider the following solved cases.
[[record]]
compound = "Cn1cc(-c2cn3cc(-c4ccccc4O)nc3nc2N)cn1 [BRM18]"
result = "< 0.5 µM"

[[record]]
compound = "Oc1ccn2cc(-c3ccccc3O)nc2n1 [BRM4, trifluoroacetate]"
result = "≥ 10 µM"


Kindly review the next compound as well.
Consider the compound Cn1cc(-c2cc(N)nc3nc(-c4ccccc4O)cn23)cn1 [BRM8] and give its measured Kd.
≥ 10 µM

###

- testedTarget: BRM (Homo sapiens, UniProt P51531)
- Construct: In-Cell Western Screen of BRM Degradation in SW1573 Cells; endogenous in cells; host or cells: SW1573 cells
- experimentSummary: Western blot / In-Cell Western screen of BRM degradation in SW1573 cells
- Type: cell-based
- conditionParameters: overnight (18-20 hours) treatment
Item-by-item account of DC50

[[record]]
compound = "CC(C)[C@@H](C(=O)N1C[C@H](O)C[C@H]1C(=O)N[C@@H](C)c1ccc(-c2ccnn2C)cc1)c1cc(N2CCC(CN3CCC(O[C@H]4C[C@H](N5CCC(C/C=C/c6cn7cc(-c8ccccc8O)nc7nc6N)CC5)C4)CC3)CC2)no1 [Compound 44]"
testedtarget = "BRM (Homo sapiens, UniProt P51531)"
result = "< 2.5 nM"


Kindly review the next compound as well.
Consider the compound Cc1ncsc1-c1ccc([C@H](C)NC(=O)[C@@H]2C[C@@H](O)CN2C(=O)[C@@H](c2cc(N3CCC(CN4CCC(O[C@H]5C[C@H](N6CCC(CC#Cc7cn8cc(-c9ccccc9O)nc8nc7N)CC6)C5)CC4)CC3)no2)C(C)C)cc1 [Compound 37] and give its measured DC50.
< 2.5 nM
